Attribution: patent US8642628B2

ASSAYED_SYSTEM: GSNOR (GSNO Reductase) (Homo sapiens, UniProt P11766)
Sequence (P11766 whole entry): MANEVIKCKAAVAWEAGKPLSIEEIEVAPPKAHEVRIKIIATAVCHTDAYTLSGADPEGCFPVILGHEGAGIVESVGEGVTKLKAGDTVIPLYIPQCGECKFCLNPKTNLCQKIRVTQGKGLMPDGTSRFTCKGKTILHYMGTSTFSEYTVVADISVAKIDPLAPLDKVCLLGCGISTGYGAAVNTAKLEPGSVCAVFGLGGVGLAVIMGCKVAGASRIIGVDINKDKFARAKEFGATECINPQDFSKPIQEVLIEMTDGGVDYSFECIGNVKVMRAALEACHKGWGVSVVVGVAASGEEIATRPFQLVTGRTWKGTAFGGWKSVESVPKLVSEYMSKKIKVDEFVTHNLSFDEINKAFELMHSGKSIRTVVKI
TEST_DESCRIPTION: GSNOR assay (inhibition of GSNOR activity, change in 340 nm absorbance)
CONDITION_PARAMETERS: 100 mM NaPO4 pH 7.4, 0.240 mM GSNO, 0.300 mM NADH, 0.5 μg/mL GSNO Reductase, 1% DMSO, 25° C.; values given as 'about' bounds; read-out: IC50 (GSNOR inhibitor activity)
pIC50: −log10 of the molar value.
Give measured pIC50 for each item. Keep answers brief.

Query: Tell me reported pIC50 for `COc1ccc(-c2ccn(CC(F)(F)C(=O)O)c2-c2ccc(C(N)=O)cc2C)cc1` , tested with GSNOR (GSNO Reductase) (Homo sapiens, UniProt P11766).
Response: > 5.30

Query: Tell me reported pIC50 for `COc1ccc(-c2ccn(-c3ccc(C(=O)O)c(Cl)c3)c2-c2ccc(C(N)=O)cc2C)cc1` , tested with GSNOR (GSNO Reductase) (Homo sapiens, UniProt P11766).
Response: > 5.30

Query: Tell me reported pIC50 for `Cc1cc(C(N)=O)ccc1-c1c(-c2ccc(-n3ccnc3)cc2)ccn1CCC(=O)O` , tested with GSNOR (GSNO Reductase) (Homo sapiens, UniProt P11766).
Response: > 6.00

Query: Tell me reported pIC50 for `COc1ccc(-c2ccn(CCC(=O)O)c2-c2ccc(C(N)=O)cc2C)cc1` , tested with GSNOR (GSNO Reductase) (Homo sapiens, UniProt P11766).
Response: > 6.00

Query: Tell me reported pIC50 for `COc1ccc(-n2ccc(CCC(=O)O)c2-c2ccc(C(N)=O)cc2C)cc1` , tested with GSNOR (GSNO Reductase) (Homo sapiens, UniProt P11766).
Response: > 6.00

Query: Tell me reported pIC50 for `COc1ccc(-c2ccn(-c3ccc(O)cn3)c2-c2ccc(C(N)=O)cc2C)cc1` , tested with GSNOR (GSNO Reductase) (Homo sapiens, UniProt P11766).
Response: > 5.30

Query: Tell me reported pIC50 for `Cc1cc(C(N)=O)ccc1-c1c(CCC(=O)O)ccn1-c1ccc(-n2ccnc2)cc1` , tested with GSNOR (GSNO Reductase) (Homo sapiens, UniProt P11766).
Response: > 6.00

Query: Tell me reported pIC50 for `COc1cc(Cl)ccc1-n1ccc(CCC(=O)O)c1-c1ccc(C(N)=O)cc1C` , tested with GSNOR (GSNO Reductase) (Homo sapiens, UniProt P11766).
Response: > 6.00

Query: Tell me reported pIC50 for `COc1ccc(-c2ccn(-c3ccc(O)c(C(=O)O)c3)c2-c2ccc(C(N)=O)cc2C)cc1` , tested with GSNOR (GSNO Reductase) (Homo sapiens, UniProt P11766).
Response: > 6.00

Query: Tell me reported pIC50 for `COc1ccc(-c2ccn(-c3cc(F)c(O)c(F)c3)c2-c2ccc(C(N)=O)cc2C)cc1` , tested with GSNOR (GSNO Reductase) (Homo sapiens, UniProt P11766).
Response: > 6.00

Query: Tell me reported pIC50 for `COc1ccc(-c2ccn(-c3ccc(C(=O)O)c(F)c3)c2-c2ccc(C(N)=O)cc2C)cc1` , tested with GSNOR (GSNO Reductase) (Homo sapiens, UniProt P11766).
Response: > 5.30

Query: Tell me reported pIC50 for `COc1ccc(-c2ccn(-c3ccc(O)c([N+](=O)[O-])c3)c2-c2ccc(C(N)=O)cc2C)cc1` , tested with GSNOR (GSNO Reductase) (Homo sapiens, UniProt P11766).
Response: > 6.00

Query: Tell me reported pIC50 for `COc1ccc(-c2ccn(-c3ccc(C(=O)O)c(O)c3)c2-c2ccc(C(N)=O)cc2C)cc1` , tested with GSNOR (GSNO Reductase) (Homo sapiens, UniProt P11766).
Response: > 6.00

Query: Tell me reported pIC50 for `Cc1cc(C(N)=O)ccc1-c1c(-c2ccc(-n3ccnc3C)cc2)ccn1-c1cc(F)c(O)c(F)c1` , tested with GSNOR (GSNO Reductase) (Homo sapiens, UniProt P11766).
Response: > 6.00

Query: Tell me reported pIC50 for `COc1ccc(-c2ccn(-c3ccc(O)c(F)c3)c2-c2ccc(C(N)=O)cc2C)cc1` , tested with GSNOR (GSNO Reductase) (Homo sapiens, UniProt P11766).
Response: > 6.00

Query: Tell me reported pIC50 for `Cc1cc(C(N)=O)ccc1-c1c(-c2ccc(-n3ccnc3C)cc2)ccn1-c1ccc(O)c(F)c1` , tested with GSNOR (GSNO Reductase) (Homo sapiens, UniProt P11766).
Response: > 6.00

Query: Tell me reported pIC50 for COc1ccc(-c2ccn(CC(C)C(=O)O)c2-c2ccc(C(N)=O)cc2C)cc1 (stereo not drawn) , tested with GSNOR (GSNO Reductase) (Homo sapiens, UniProt P11766).
Response: > 5.30

Query: Tell me reported pIC50 for `COc1ccc(-c2ccn(-c3ccc(C(=O)O)cc3)c2-c2ccc(C(N)=O)cc2C)cc1` , tested with GSNOR (GSNO Reductase) (Homo sapiens, UniProt P11766).
Response: > 6.00
